Documented pIC50 across a set of compounds
EXPERIMENTAL SYSTEM: human MC5R (Homo sapiens (Human))
MEASUREMENT PROTOCOL: Human MC5R radioligand binding assay ([125I] NDP-MSH displacement, membranes)
pIC50: −log10 of the molar value.
RESULT TYPE: pIC50

1) CC[C@@H](CN1CC[C@@H](CNC(=O)c2ccc3cc(Cl)ccc3c2)N[C@H](CCN2CCCCC2)C1=O)c1ccccc1 [Compound 584] | > 6.00
2) O=C(NCC1CCN(CC(c2ccccc2)c2ccccc2)C(=O)C(C2CCNCC2)N1)c1ccc2ccccc2c1 (racemic) [Compound 197] | > 6.00
3) O=C(NCC1CCN(CC(c2ccccc2)c2ccccc2)C(=O)C(CC2CCNCC2)N1)c1ccc2ccccc2c1 (racemic) [Compound 198] | > 6.00
4) CC[C@H](CN1CC[C@@H](CNC(=O)c2ccc3cc(Cl)ccc3c2)N[C@H](CCN2CCCCC2)C1=O)c1ccccc1 [Compound 582] | > 7.00
5) CC[C@H](CN1CC[C@@H](CNC(=O)Cc2ccc(Cl)cc2Cl)N[C@@H](CCN2CCCCC2)C1=O)c1ccccc1 [Compound 540] | > 6.00

====

EXPERIMENTAL SYSTEM: human MC5R (Homo sapiens (Human))
MEASUREMENT PROTOCOL: Human MC5R radioligand binding assay ([125I] NDP-MSH displacement, membranes)
CONDITION LABEL: hMC5R binding assay as in Example 102; compounds tested as trifluoroacetate or hydrochloride salts, or as free base
pIC50: −log10 of the molar value.
RESULT TYPE: pIC50

1) O=C(/C=C/c1ccccc1)NC[C@@H]1CCN(CC(c2ccccc2)c2ccccc2)C(=O)[C@H](CCCN2CCCCC2)N1 [Compound 269] | > 7.00
2) Nc1ccccc1C[C@H]1C(=O)N(CC(c2ccccc2)c2ccccc2)CC[C@H]2CN(C(=O)/C=C/c3ccc(Cl)cc3)CN21 [Compound 453] | > 6.00
3) N=C(N)NCCC[C@@H]1N[C@H](CNC(=O)/C=C/c2ccccc2)CCN(CC(c2ccccc2)c2ccccc2)C1=O [Compound 153] | > 7.00
4) NCCC[C@@H]1N[C@H](CNC(=O)/C=C/c2ccccc2)CCN(CC(c2ccccc2)c2ccccc2)C1=O [Compound 213] | > 6.00
5) NCC[C@@H]1N[C@H](CNC(=O)/C=C/c2ccccc2)CCN(CC(c2ccccc2)c2ccccc2)C1=O [Compound 282] | > 6.00

====

EXPERIMENTAL SYSTEM: human MC5R (Homo sapiens (Human), UniProt P33032)
Sequence (P33032 whole entry): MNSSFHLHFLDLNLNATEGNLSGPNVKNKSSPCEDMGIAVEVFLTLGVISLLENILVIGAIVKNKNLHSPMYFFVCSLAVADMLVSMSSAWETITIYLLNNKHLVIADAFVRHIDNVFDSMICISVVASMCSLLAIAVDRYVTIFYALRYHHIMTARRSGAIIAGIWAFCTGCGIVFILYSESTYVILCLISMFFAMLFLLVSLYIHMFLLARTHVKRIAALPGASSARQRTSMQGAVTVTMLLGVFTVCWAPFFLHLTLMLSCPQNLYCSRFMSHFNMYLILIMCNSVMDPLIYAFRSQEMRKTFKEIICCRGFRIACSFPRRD
MEASUREMENT PROTOCOL: Human MC5R radioligand binding assay ([125I] NDP-MSH displacement, membranes)
CONDITION LABEL: hMC5R binding assay as in Example 102; compounds tested as trifluoroacetate or hydrochloride salts, or free base
RESULT TYPE: IC50

1) O=C(NC[C@@H]1CCN(Cc2cc(Cl)cc(Cl)c2)C(=O)[C@H](CCN2CCOCC2)N1)c1ccc2cc(Cl)ccc2c1 [Compound 555] | < 100 nM
2) COc1ccc2cc(C(=O)NC[C@@H]3CCN(Cc4cc(Cl)cc(Cl)c4)C(=O)[C@H](CCN4CCCCC4)N3)ccc2c1 [Compound 568] | < 100 nM
3) O=C(NC[C@@H]1CCN(Cc2cc(Cl)cc(Cl)c2)C(=O)[C@H](CCN2CCOCC2)N1)c1ccc(Cl)c(Cl)c1 [Compound 556] | < 100 nM

These data points were gathered from patent US9340517B2.
